target: α6β2*-nAChR (Mus musculus, UniProt Q9ERK7+Q9R0W9); assay: α-CtxMII-sensitive [3H]-dopamine release from striatal synaptosomes; type: biochemical; settings: EC50 α-CtxMII-sensitive (α6β2*) [3H]-DA release
Sequence (Q9R0W9 31-494): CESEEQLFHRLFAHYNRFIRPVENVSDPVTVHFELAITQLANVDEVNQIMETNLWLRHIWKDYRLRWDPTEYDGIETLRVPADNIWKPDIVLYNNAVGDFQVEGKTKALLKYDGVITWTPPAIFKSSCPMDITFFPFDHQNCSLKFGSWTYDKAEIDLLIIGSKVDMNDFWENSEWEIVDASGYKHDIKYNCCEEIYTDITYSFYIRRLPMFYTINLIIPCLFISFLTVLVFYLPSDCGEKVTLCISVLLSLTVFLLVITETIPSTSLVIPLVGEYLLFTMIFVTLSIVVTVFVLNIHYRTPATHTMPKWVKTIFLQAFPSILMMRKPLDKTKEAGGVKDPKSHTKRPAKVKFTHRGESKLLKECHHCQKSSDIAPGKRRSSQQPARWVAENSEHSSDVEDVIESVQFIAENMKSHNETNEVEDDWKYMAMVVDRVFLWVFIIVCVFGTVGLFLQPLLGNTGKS
Sequence (Q9ERK7 26-501): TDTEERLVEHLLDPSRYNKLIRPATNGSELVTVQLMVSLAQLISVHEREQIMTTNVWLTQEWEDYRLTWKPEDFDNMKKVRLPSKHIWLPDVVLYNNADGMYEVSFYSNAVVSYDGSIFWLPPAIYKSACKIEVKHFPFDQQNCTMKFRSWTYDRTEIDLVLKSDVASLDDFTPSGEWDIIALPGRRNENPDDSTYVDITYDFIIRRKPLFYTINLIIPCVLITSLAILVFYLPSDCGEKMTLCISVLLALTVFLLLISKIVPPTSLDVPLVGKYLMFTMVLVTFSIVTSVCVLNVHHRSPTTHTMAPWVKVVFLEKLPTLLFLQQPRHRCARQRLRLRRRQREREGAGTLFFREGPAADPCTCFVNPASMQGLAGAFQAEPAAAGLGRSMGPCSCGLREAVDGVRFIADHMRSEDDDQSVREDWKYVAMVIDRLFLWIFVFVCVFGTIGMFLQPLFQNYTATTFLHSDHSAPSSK
Sequence (Q8BMN3 31-464 partner): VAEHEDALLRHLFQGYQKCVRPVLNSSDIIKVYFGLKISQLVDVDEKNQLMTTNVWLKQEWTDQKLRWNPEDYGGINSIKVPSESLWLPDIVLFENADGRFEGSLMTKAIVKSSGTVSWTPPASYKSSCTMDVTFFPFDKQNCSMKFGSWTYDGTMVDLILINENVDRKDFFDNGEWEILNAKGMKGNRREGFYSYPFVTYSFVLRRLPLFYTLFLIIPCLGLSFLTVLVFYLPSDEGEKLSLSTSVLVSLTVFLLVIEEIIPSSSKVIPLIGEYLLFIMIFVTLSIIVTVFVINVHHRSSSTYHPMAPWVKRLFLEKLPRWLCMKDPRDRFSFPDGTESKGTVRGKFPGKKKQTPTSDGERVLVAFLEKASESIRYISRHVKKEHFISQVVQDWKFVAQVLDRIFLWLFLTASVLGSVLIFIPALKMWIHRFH
READOUT TYPE: EC50
Express the reported value numerically, then name its unit.

Request the reported EC50 associated with CN1[C@@H]2CC[C@H]1C=C(c1cncc(Br)c1)C2
120 nM

###

target: α3β4*-nAChR (Mus musculus, UniProt Q8R493+Q8R4G9); experiment: [3H]-ACh release from IPN synaptosomes; type: biochemical
Sequence (Q8R4G9 26-499): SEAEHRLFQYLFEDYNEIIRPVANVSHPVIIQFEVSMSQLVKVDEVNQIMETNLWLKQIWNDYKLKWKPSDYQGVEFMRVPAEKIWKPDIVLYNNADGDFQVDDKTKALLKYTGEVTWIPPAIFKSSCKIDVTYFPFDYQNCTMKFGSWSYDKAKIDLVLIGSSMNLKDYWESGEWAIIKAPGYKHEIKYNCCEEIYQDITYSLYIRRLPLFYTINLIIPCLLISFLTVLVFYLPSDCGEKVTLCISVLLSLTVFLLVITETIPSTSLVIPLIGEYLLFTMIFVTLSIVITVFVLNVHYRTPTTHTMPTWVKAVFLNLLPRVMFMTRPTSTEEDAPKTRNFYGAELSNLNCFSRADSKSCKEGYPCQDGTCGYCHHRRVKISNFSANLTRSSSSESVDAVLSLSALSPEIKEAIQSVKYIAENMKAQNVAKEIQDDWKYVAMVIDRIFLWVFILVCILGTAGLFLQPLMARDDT
Sequence (Q8R493 21-495): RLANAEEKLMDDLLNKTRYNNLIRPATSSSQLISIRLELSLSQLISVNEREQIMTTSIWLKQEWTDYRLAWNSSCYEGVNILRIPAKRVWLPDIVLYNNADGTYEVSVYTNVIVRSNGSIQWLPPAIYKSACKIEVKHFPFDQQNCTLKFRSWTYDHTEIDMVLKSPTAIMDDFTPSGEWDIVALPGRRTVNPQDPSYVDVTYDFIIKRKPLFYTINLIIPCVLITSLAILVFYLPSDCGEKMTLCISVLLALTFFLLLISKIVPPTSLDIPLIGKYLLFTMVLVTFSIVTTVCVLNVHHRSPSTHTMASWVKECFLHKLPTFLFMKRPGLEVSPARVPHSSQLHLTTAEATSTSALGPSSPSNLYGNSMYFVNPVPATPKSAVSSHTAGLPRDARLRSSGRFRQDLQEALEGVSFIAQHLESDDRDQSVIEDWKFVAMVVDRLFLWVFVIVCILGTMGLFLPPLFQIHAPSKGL
READOUT TYPE: EC50 (µM)
Your answer should be a plain number; it is taken to be in µM.

Request the reported EC50 associated with c1cnc2cc3c(cc2n1)[C@@H]1CNC[C@H]3C1 [Varenicline, reference compound]
12

Request the reported EC50 associated with c1cncc(C2C3CCN2CC3)c1 (centres unmarked) [Compound 2]
4.2
